# Tested on: SK-OV-3
# ASSAY_SUMMARY: NCI tumour cell line growth inhibition, 48 h
Activity calls are given as the source filed them. Cut-off read from the data, not from the text of the source: active = GI50 up to about 1.1 µM and inactive = higher.
For each entry below, report its GI50 value.

Request: Quick one: GI50 of CC(=O)Nc1ccc(N2C(=O)/C(=C\c3cccc(Oc4ccccc4)c3)SC2c2ccccc2)cc1 (stereo not given) ?
Response: 16.1 µM (inactive)

Request: Please report the recorded GI50 for O=C(NCCc1n[nH]c2c1C(=O)C=C(Nc1ccccc1)C2=O)OCc1ccccc1 .
Response: > 100 µM (inactive)

Request: Recorded GI50 of CN(C)c1ccc2nc3c(C(=O)O)cc(O)c(O)c3[o+]c2c1 , please.
Response: 25 µM (inactive)

Request: Dear colleague, I am looking for the recorded GI50 of the following compound: Cc1ccc(-c2nc3cc([N+](=O)[O-])ccc3[nH]2)cc1
Response: > 100 µM (inactive)

Request: Requested field: GI50. Item: Cc1c2c(c(C)n1-c1ccccc1)C(=O)N(CCSC(=N)N)C2=O
Response: > 100 µM (inactive)

* * *

# System: KM12
# ASSAY_SUMMARY: NCI tumour cell line growth inhibition, 48 h
Active and inactive are the calls of the source. Rule as the data show it: active = GI50 up to about 1.1 µM and inactive = higher.
For each record, write down the corresponding GI50.

Request: Need GI50, item O=C(Nc1nnc(-c2c(Cl)c(Cl)c(Cl)c(Cl)c2-c2nc3cc(C(=O)c4ccccc4)ccc3[nH]2)o1)c1ccccc1
Response: 23.2 µM (inactive)

Request: Entry CCC(CS(=O)(=O)O)[N+](=O)[O-] (stereo not given) has what GI50?
Response: > 100 µM (inactive)

Request: Entry Cc1ccc(/C=C/C(=O)c2c([O-])on[n+]2-c2ccccc2)cc1 has what GI50?
Response: 2.39 µM (inactive)

Request: // lookup GI50 for Sc1ncnc2c1ncn2C1CCCO1 (stereo not given)
Response: > 100 µM (inactive)

Request: Need GI50 of O=c1cc(-c2ccccc2)[nH]c2ccc(N3CCOCC3)cc12 , thanks.
Response: < 0.0171 µM (active)

Request: Look at this compound and give its reported GI50. Cc1cc(C)c(O)c(CN2CCN(C(C)C)CCN(C(C)C)CC2)c1
Response: 17 µM (inactive)

Request: Which GI50 value belongs to CCCCCCCCCCCCCCCCCCOCC1(COP(=O)([O-])OCC[N+](C)(C)C)CCCO1 (stereo not given) ?
Response: 1.39 µM (inactive)

Request: Need GI50 of COCCOc1cc(C)cc(/C=C(C)/C=C/C2=C(C)CCCC2(C)C)n1 , thanks.
Response: 70.6 µM (inactive)

Request: Which GI50 value belongs to COC(=O)[C@@H]1c2c(oc3cc(CO)cc(O)c3c2=O)C=C[C@H]1O ?
Response: 3.71 µM (inactive)

Request: Looking for the measured GI50 of O=C(NNC(=O)c1ccccc1SSc1ccccc1C(=O)NNC(=O)c1ccccc1S)c1ccccc1S , can you help?
Response: 30.5 µM (inactive)

* * *

# Test system: HCT-116
# ASSAY_SUMMARY: NCI tumour cell line growth inhibition, 48 h
Activity calls are given as the source filed them. Cut-off read from the data, not from the text of the source: active = GI50 up to about 1.1 µM and inactive = higher.
TEST_READOUT: GI50

Request: For CCOC(=O)c1sc2nc1CSc1sc(=S)sc1SCc1nc(sc1C(=O)OCC)-c1nc(c(C(=O)OCC)s1)CSc1sc(=S)sc1SCc1nc-2sc1C(=O)OCC , what is its reported GI50?
Response: > 10 µM (inactive)

Request: State the recorded GI50 for this entry: Cc1c2c(c(C)n1-c1ccccc1)C(=O)N(CCSC(=N)N)C2=O
Response: > 100 µM (inactive)

Request: What GI50 value was documented for this molecule, Clc1cccc(Cl)c1C1SCc2nc3cc4ccccc4cc3n21 (stereo unspecified) ?
Response: > 100 µM (inactive)

Request: State the recorded GI50 for this entry: O=S(=O)(O)c1ccc2c(/N=N/c3cccc4ccccc34)c(O)ccc2c1
Response: > 100 µM (inactive)

Request: For COC(=O)[C@@]1(NC(=O)C(CC(=O)OC(C)(C)C)NC(=O)OC(C)(C)C)C[C@H]1C (stereo partly specified) , what is its reported GI50?
Response: > 100 µM (inactive)

Request: Which GI50 is reported for this molecule? CCn1c(=O)c2cn[nH]c2n(C)c1=O
Response: > 100 µM (inactive)

Request: Field request: GI50 | item: O=C1CSC(c2cc3cc(Br)ccc3nc2Cl)N1c1ccc(Cl)cc1 (stereo unspecified)
Response: 23.6 µM (inactive)

Request: Value lookup for GI50; key = CC(C)=NOC(=O)Nc1cccc2c1OCO2
Response: > 100 µM (inactive)

Request: If you can, please state the reported GI50 value of Cn1c2ccccc2c2ccc3c(c21)C(=O)c1ccccc1C3=O .
Response: 17.3 µM (inactive)

Request: # lookup: GI50 of O=C(NCCc1n[nH]c2c1C(=O)C=C(Nc1ccccc1)C2=O)OCc1ccccc1
Response: 97.3 µM (inactive)

Request: So what's the measured GI50 for this one? C=CC[C@@H]1C=C[C@@H](C(=O)OC)n2c(=O)n(-c3ccccc3)c(=O)n21
Response: > 100 µM (inactive)

Request: Quick one: GI50 for NNC(=O)CNC(=O)c1ccc(Cl)cc1Cl ?
Response: 39.4 µM (inactive)

Request: Record request: GI50 value, item c1ccc([P+](CCN2Cc3ccccc3C2)(c2ccccc2)c2ccccc2)cc1
Response: 3 µM (inactive)

Request: For O=C(CCN1CCCC1)Nc1ccc2sc3ccccc3c(=O)c2n1 , what is its reported GI50?
Response: 11.5 µM (inactive)

Request: Give its GI50 value. Item: CN1C(=O)CCC1c1ccc2c(c1)oc(=O)n2C (stereo unspecified)
Response: > 100 µM (inactive)

Request: Entry Cn1cnc([N+](=O)[O-])c1Sc1nc(N)nc2c1ncn2C1OC(CO)C(O)C1O (stereo unspecified) : reported GI50 = ?
Response: 3.85 µM (inactive)

Request: Returns the measured GI50 for the input molecule. Input: C/C(=N/NC(=O)C[n+]1ccccc1)C(CN(CC(C)C)CC(C)C)C(=O)Nc1ccc(C)cc1C (stereo unspecified)
Response: > 100 µM (inactive)

Request: What does the data say about its GI50? Entry: CCCCC1Cc2ccccc2-c2n1c1ccccc1[n+]2C (stereo unspecified)
Response: 17.6 µM (inactive)

Request: Quick one: GI50 of CCCCC/N=C/c1c(O)c(O)c(C(C)C)c2cc(C)c(-c3c(C)cc4c(C(C)C)c(O)c(O)c(/C=N/CCCCC)c4c3O)c(O)c12 ?
Response: 11 µM (inactive)

Request: Recorded GI50 of COc1ccc(/C(=N\NC(=S)NN)C(c2ccc(OC)cc2)C2C(=O)Oc3ccccc32)cc1 (stereo unspecified) , please.
Response: > 10 µM (inactive)

Request: Which measured GI50 value corresponds to c1ccc2c(C3NCCc4nc[nH]c43)cccc2c1 (stereo unspecified) ?
Response: > 100 µM (inactive)

* * *

# Test system: M14
# ASSAY_SUMMARY: NCI tumour cell line growth inhibition, 48 h
Calls of active or inactive are those of the source. Cut-off read from the data, not from the text of the source: active = GI50 up to about 1.1 µM and inactive = higher.
TEST_READOUT: GI50

Request: Tell me the measured GI50 of CN1CCC23c4c5ccc(O)c4OC2c2[nH]c4ccccc4c2CC3(O)C1C5 (configuration not stated) , please.
Response: 17.7 µM (inactive)

Request: Param item = c1ccc(CNc2ncnc3nn[nH]c23)cc1 ; retrieve measured GI50.
Response: > 100 µM (inactive)

Request: Query (molecule): C[N+](C)(C)CCC(=O)CC[N+](C)(C)C ; field requested: GI50
Response: 18.3 µM (inactive)

Request: Quick one: GI50 of CC(C)C1OC(/C=C/c2ccccc2)OCC1(C)C (configuration not stated) ?
Response: 36.2 µM (inactive)

Request: Fill in: GI50 of CO/C=C(\Br)c1ccc2c(c1)OCO2 is ___
Response: > 100 µM (inactive)

Request: Fill blank: measured GI50 of the molecule CC(=O)OC1CC2Oc3ccc(C)cc3C(C)(O2)C1=O (configuration not stated) is ____.
Response: > 100 µM (inactive)

Request: Recorded GI50 of CC1(C)SCc2nc3ncccc3n21 , please.
Response: > 100 µM (inactive)

* * *

# Test system: OVCAR-3
# ASSAY_SUMMARY: NCI tumour cell line growth inhibition, 48 h
Active and inactive are the calls of the source. No stated cut-off is given here; in the data, active = GI50 up to about 1.1 µM and inactive = higher.
Return exactly one item of active, inactive

Request: Could you please tell me the result logged for COC(=O)[C@@]12C3=NO[C@]1(C(=O)OC)C(O[Si](C)(C)C(C)(C)C)[C@@H](OC(C)=O)[C@@H](OC(C)=O)[C@@H]2[C@@H](OCc1ccccc1)CC3 (stereo partly drawn) in this assay?
Response: inactive

Request: Returns: the outcome recorded for Cc1ccc(N2C(=O)C(O)=C(C(=O)C(C)(C)C)C2c2ccc([N+](=O)[O-])cc2)cc1 (stereo not drawn) in this assay.
Response: inactive

Request: Kindly provide the recorded test outcome for the following compound: COC(=O)/N=C(\NC(=O)OC)Nc1ccc(Oc2ccccc2)cc1NC=O
Response: active

Request: What call does the record list for C=CCc1cc2cccc(OC)c2oc1=O ?
Response: inactive

Request: Check the results log: what was the call for COc1cc2c(c(O)c1OC)CC1CCC(=O)N1C2c1cccc2ccccc12 (stereo not drawn) ?
Response: inactive

Request: Test call, this compound: O=c1cc(-c2ccccc2)oc2cc(OCC(O)COc3ccc4c(=O)cc(-c5ccccc5)oc4c3)ccc12
Response: inactive

Request: Could you please tell me the result logged for CC(CCc1ccccc1)NCC(O)n1c(/N=N/N(C)C)nc2c1c(=O)n(C)c(=O)n2C (stereo not drawn) in this assay?
Response: inactive

Request: What call does the record list for Oc1ccc2c3c1OC1c4[nH]c5c(c4CC4(O)C(C2)N(CC2CC2)CC[C@]314)CC1(O)C2Cc3ccc(O)c4c3[C@@]1(CCN2CC1CC1)C5O4 (stereo partly drawn) ?
Response: inactive
